# assayed target: glucokinase (GK) (Homo sapiens, UniProt P35557)
# Construct: I.D. No. 1 corresponds to residues 12-465 of glucokinase; made in house; host or cells: E. coli DH10b-T1r
# Sequence (P35557 with tags, fused parts or gaps isoform P35557-2): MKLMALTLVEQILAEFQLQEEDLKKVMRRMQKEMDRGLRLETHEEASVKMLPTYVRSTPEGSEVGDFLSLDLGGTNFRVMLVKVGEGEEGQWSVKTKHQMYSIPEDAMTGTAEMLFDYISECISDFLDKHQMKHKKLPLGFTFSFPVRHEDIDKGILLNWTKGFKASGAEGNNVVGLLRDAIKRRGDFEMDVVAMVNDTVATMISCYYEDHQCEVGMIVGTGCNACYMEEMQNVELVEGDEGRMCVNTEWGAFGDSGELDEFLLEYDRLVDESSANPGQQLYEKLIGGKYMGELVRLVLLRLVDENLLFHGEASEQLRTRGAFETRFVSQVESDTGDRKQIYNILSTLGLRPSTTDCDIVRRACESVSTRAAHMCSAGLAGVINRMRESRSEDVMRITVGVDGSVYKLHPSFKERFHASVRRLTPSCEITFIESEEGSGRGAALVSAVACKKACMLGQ
# method summary: enzymatic glucokinase activity assay (ATP consumption, KinaseGlo luminescence)
# Type: biochemical
# details: recombinant GK residues 12-465; 5 μM ATP, 5 mM Glucose; Kact = concentration that displays 50% of the maximal increase in GK activity; read-out: pKact
pEC50: −log10 of the molar value.
Recorded pEC50 by entry

O=C(Nc1ncc(Cl)s1)[C@@H](CC1CCOCC1)n1ccc(S(=O)(=O)CC(F)(F)F)cc1=O | < 4.80
COCCC(C)(C)S(=O)(=O)c1ccn([C@H](CC2CCOCC2)C(=O)Nc2nc3ccc(OC)nc3s2)c(=O)c1 | < 4.80
COc1ccc(-c2cc(C)n([C@@H](CC3CCCCC3)C(=O)Nc3nccs3)c(=O)c2)cc1 | < 4.80

Continue with the molecule presented below.
Identify the measured pEC50 of Cc1cc(S(=O)(=O)C2CCCC2)cc(=O)n1[C@@H](CC1CCOCC1)C(=O)Nc1ccc(C(N)=O)cn1 for glucokinase (GK) (Homo sapiens, UniProt P35557).
4.80 to 5.80

* * *

Here, each record is paired with measured EC50 data.
# assayed target: glucokinase (GK) (Homo sapiens, UniProt P35557)
# Construct: I.D. No. 1 corresponds to residues 12-465 of glucokinase
# method summary: enzymatic glucokinase activity assay (ATP consumption, KinaseGlo luminescence)
# details: recombinant GK residues 12-465; 5 μM ATP, 5 mM Glucose; Kact = concentration that displays 50% of the maximal increase in GK activity; read-out: pKact

Cc1cc(S(=O)(=O)Cc2cccs2)cc(=O)n1C(CC1CCOCC1)C(=O)Nc1ncc(Cl)s1 (stereo not drawn) [Example 134] | < 1.58 µM
O=C(Nc1ncc(F)s1)[C@H](CC1CCOCC1)n1ccc(S(=O)(=O)C2CC2)cc1=O [Example 35] | < 1.58 µM
COc1ccc2nc(NC(=O)C(CC3CCOCC3)n3ccc(S(=O)(=O)C4CC4)cc3=O)sc2c1 (stereo not drawn) [Example 127] | 1.58 to 15.8 µM
O=C(Nc1ncc(Cl)s1)[C@@H](CC1CCOCC1)n1cc(Cl)c(S(=O)(=O)C2CC2)cc1=O [Example 195] | > 15.8 µM
O=C(Nc1ncc(F)s1)[C@@H](CC1CCOCC1)n1cc(Cl)c(S(=O)(=O)C2CC2)cc1=O [Example 197] | > 15.8 µM
Cc1cc(S(=O)(=O)C2CCOCC2)cc(=O)n1[C@@H](CC1CCCC1)C(=O)Nc1ncc(Cl)s1 [Example 191] | 1.58 to 15.8 µM
Cc1cc(S(=O)(=O)c2cc(C)n(C(CC3CCCCC3)C(=O)Nc3ncc(Cl)s3)c(=O)c2)c(C)o1 (stereo not drawn) [Example 83] | < 1.58 µM
Cc1cc(S(=O)(=O)Cc2ccco2)cc(=O)n1[C@H](CC1CCOCC1)C(=O)Nc1ncc(Cl)s1 [Example 142] | > 15.8 µM

Identify the measured EC50 of Cc1c(S(=O)(=O)C2CCCC2)c(C)c(=O)n([C@@H](CC2CCOCC2)C(=O)Nc2ncc(Cl)s2)c1C [Example 135] for glucokinase (GK) (Homo sapiens, UniProt P35557).
< 1.58 µM

Request: N#Cc1cnc(NC(=O)[C@H](CC2CCOCC2)n2ccc(S(=O)(=O)C3CCCC3)cc2=O)s1 [Example 57]
1.58 to 15.8 µM

Record: CS(=O)(=O)c1ccn(C(CC2CCOCC2)C(=O)Nc2ncc(CCC(=O)O)s2)c(=O)c1 (stereo not drawn) [Example 53]
> 15.8 µM

Can you handle Cc1cc(S(=O)(=O)C2CC2)cc(=O)n1[C@@H](CC1CCCC1)C(=O)Nc1ncc(F)s1 [Example 162] next?
< 1.58 µM
